Attribute: Sp. act.
- Assay protocol: Rate of hydrolysis in homogenized distal small intestine contents
- Measurement conditions: DSI contents; 1.0 mM prodrug, 37 C; release of free steroid by HPLC
Measured quantity: Sp. act. (nmoles/min/g wet weight)

• CC12C=CC(=O)C=C1CCC1C2C(O)CC2(C)C1CCC2(O)C(=O)COC1OC(CO)C(OC2OC(CO)C(O)C(O)C2O)C(O)C1O (stereo not shown) = 32.5
• CC1CC2C3CCC4=CC(=O)C=CC4(C)C3(F)C(O)CC2(C)C1(O)C(=O)COC1OC(CO)C(O)C(O)C1O (stereo not shown) [Compound 1] = 19.3
• CC12CCC(=O)C=C1CCC1C3CCC(O)(C(=O)COC4OC(CO)C(O)C(O)C4O)C3(C)CC(O)C12F (stereo not shown) [Compound 12] = 56.7
• CC12CCC(=O)C=C1CCC1C2C(O)CC2(C)C1CCC2(O)C(=O)COC1OC(CO)C(O)C(O)C1O (stereo not shown) [Compound 5] = 39.2
